As shown below, each of these compounds has a reported collision cross section (N2) value.
PARTICULARS: [M+H]+; instrument: TW
Numbers only; they are read as Å².

Please review the following examples before continuing.
COMPOUND	RECORDED METRIC	EXPERIMENTAL RESULT
CS(=O)(=O)c1ccc(C(=O)C2C(=O)CCCC2=O)c([N+](=O)[O-])c1	collision cross section (N2)	175.66
C=C1C[C@@]23CC[C@H]4[C@@](C)(CCC[C@@]4(C)C(=O)O)[C@@H]2CC[C@]1(O[C@@H]1O[C@H](CO)[C@@H](O)[C@H](O[C@@H]2O[C@H](CO)[C@@H](O)[C@H](O)[C@H]2O)[C@H]1O[C@@H]1O[C@H](CO)[C@@H](O)[C@H](O)[C@H]1O)C3 [Rebaudioside B]	collision cross section (N2)	261.19
CC(C)Oc1cccc(NC(=O)c2ccccc2C(F)(F)F)c1	collision cross section (N2)	175.45
CC(NC(=O)C(NC(=O)O)C(C)C)c1nc2ccc(F)cc2s1 (stereo not drawn)	collision cross section (N2)	173.38
COC(=O)C(C)N(C(=O)c1ccco1)c1c(C)cccc1C (stereo not drawn)	collision cross section (N2)	167.15

Give recorded collision cross section (N2). `N#C/N=C1\SCCN1Cc1ccc(Cl)nc1`
154.84

Give recorded collision cross section (N2). CC(Cc1ccc(O)cc1)NCC(O)c1cc(O)cc(O)c1 (stereo not drawn)
180.4

###

PARTICULARS: [M+H]+; instrument: DT; single field, calibrated with Agilent tune mix (Agilent)
As shown below, each of these compounds has a reported collision cross section (N2) value.

Please review the following examples before continuing.
COMPOUND	collision cross section (N2)
c1ncc2[nH]cnc2n1	121.8 Å²
Nc1nc(=O)c2ncn([C@H]3C[C@H](O)[C@@H](COP(=O)(O)OP(=O)(O)O)O3)c2[nH]1	187.7 Å²
C[C@]12C[C@H](O)[C@H]3[C@@H](CCC4=CC(=O)CC[C@@]43C)[C@@H]1CC[C@@H]2C(=O)CO	186.8 Å²

Give recorded collision cross section (N2). O=C(O)C(O)Cc1c[nH]c2ccccc12 (configuration not stated)
143.8 Å²

Give recorded collision cross section (N2). `Cc1ncc(CO)c(CO)c1O`
134.6 Å²

Give recorded collision cross section (N2). O=C(O)C(O)Cc1ccccc1 (racemic)
137.8 Å²

Give recorded collision cross section (N2). `Cn1cnc2c(ncn2[C@@H]2O[C@H](CO)[C@@H](O)[C@H]2O)c1=N`
164.2 Å²

Give recorded collision cross section (N2). `C[C@H](CCC(=O)NCCS(=O)(=O)O)[C@H]1CC[C@H]2[C@@H]3CC[C@@H]4C[C@H](O)CC[C@]4(C)[C@H]3C[C@H](O)[C@]12C`
204.5 Å²

Give recorded collision cross section (N2). CCCCCCCCCCCCCCCCCC(N)=O [Stearamide]
188.3 Å²

Give recorded collision cross section (N2). Nc1ncnc2c1ncn2[C@@H]1O[C@H](COP(=O)(O)OP(=O)(O)OP(=O)(O)O)[C@@H](O)[C@H]1O [Adenosine 5'-triphosphate]
196.4 Å²

Give recorded collision cross section (N2). `CC(=O)N[C@@H](CCCN)C(=O)O`
136.9 Å²

Give recorded collision cross section (N2). `O=C(O)c1c[nH]c2ccccc12`
132.4 Å²

Give recorded collision cross section (N2). O=C(O)Cc1c[nH]c2ccc(O)cc12 [5-Hydroxyindoleacetate]
140.9 Å²

Give recorded collision cross section (N2). `CCCCC/C=C\C/C=C\C/C=C\CCCCC(=O)O`
174.1 Å²

Give recorded collision cross section (N2). `OC[C@H]1O[C@H](OC[C@H]2O[C@H](O[C@]3(CO)O[C@H](CO)[C@@H](O)[C@@H]3O)[C@H](O)[C@@H](O)[C@@H]2O)[C@H](O)[C@@H](O)[C@H]1O`
209 Å²

Give recorded collision cross section (N2). CC(C)(CO)[C@@H](O)C(=O)NCCC(=O)O [Pantothenate]
148.1 Å²

###

PARTICULARS: [M-H]-; instrument: DT; single field, calibrated with Agilent tune mix (Agilent)
collision cross section (N2) strictly under 200 Å² means 1.0; at 200 Å² or over means 0.0.

Worked examples follow.
CPD SMILES	CLASSIFICATION
CCCCCCCC/C=C/CCCCCCCC(=O)O[C@H](COC(=O)CCCCCCCCCCCCCCC)COP(=O)([O-])OCC[N+](C)(C)C	0.0
COc1ccc2c(c1)[nH]c1c(C)nccc12	1.0
C[C@]12CCC(=O)C=C1CC[C@@H]1[C@@H]2CC[C@@]2(C)[C@H]1CC[C@]2(O)C(=O)CO	1.0
CCCCC/C=C\C/C=C\C/C=C\CCCCC(=O)O	1.0

Shift focus to the following entry.
Please indicate whether the reported collision cross section (N2) of `NCCCCC(=O)O` is strictly below 200 Å².
1.0

###

PARTICULARS: [M-H]-; instrument: DT; stepped-field
As shown below, each of these compounds has a reported collision cross section (N2) value.
Numbers only; they are read as Å².

Please review the following examples before continuing.
COMPOUND	RECORDED METRIC	EXPERIMENTAL RESULT
CCCCCCCCCC/C=C\CCCCCCCCCC(=O)O[C@H](COC(=O)CCCCCCCCCCCCC)COP(=O)(O)OC[C@H](N)C(=O)O [PS(36:1)]	collision cross section (N2)	289.4
CC/C=C\C/C=C\C/C=C\C/C=C\CCCCC(=O)OC[C@H](COP(=O)(O)OC[C@@H](O)CO)OC(=O)CCCCCCCCCCCCCCCCC [PG(36:4)]	collision cross section (N2)	278
CCCCCCCC/C=C\CCCCCCCCCC(=O)O[C@H](COC(=O)CCCCCCCCCCCC)COP(=O)(O)OC[C@@H](O)CO [PG(33:1)]	collision cross section (N2)	273.7

Give recorded collision cross section (N2). CCCCCCCC/C=C\CCCCCCCC(=O)OC[C@@H](O)COP(=O)(O)O [LPA(18:1)]
198.8

Give recorded collision cross section (N2). CCCCC/C=C\C/C=C\CCCCCCCCCCCC(=O)O[C@H](COC(=O)CCCCCCCCCCCCC)COP(=O)(O)O [PA(18:1/18:1)]
264

Give recorded collision cross section (N2). CCCCCCCCCC/C=C\CCCCCCCCCC(=O)O[C@H](COC(=O)CCCCCCCCCCCCCCCCC)COP(=O)(O)OC[C@H](N)C(=O)O [PS(40:1)]
302.2

Give recorded collision cross section (N2). CCCCC/C=C\C/C=C\CCCCCCCCCCCC(=O)O[C@H](COC(=O)CCCCCCCCCCC)COP(=O)(O)OC[C@H](N)C(=O)O [PS(16:1/18:1)]
276.9

###

As shown below, each of these molecules has a reported collision cross section (N2) value.
PARTICULARS: [M+Na-2H]-; instrument: DT; single field, calibrated with Agilent tune mix (Agilent)
Numbers only; they are read as Å².

Please review the following examples before continuing.
MOLECULE	collision cross section (N2) [Å²]
N[C@@H](CSS(=O)(=O)O)C(=O)O [Cysteine-S-sulfate]	133.29
O=C(O)CCCCC(=O)O	129.61
O=C(/C=C/c1ccc(O)c(O)c1)O[C@@H]1C[C@](O)(C(=O)O)C[C@@H](O)[C@H]1O	173.79
COc1cc(/C=C/C(=O)CC(=O)/C=C/c2ccc(O)c(OC)c2)ccc1O	178.82

Give recorded collision cross section (N2). O=P(O)(O)OC[C@H]1O[C@H](OP(=O)(O)O)[C@H](O)[C@@H](O)[C@@H]1O [Alpha-D-Glucose 1,6-bisphosphate]
159.11

###

PARTICULARS: [M-H]-; instrument: DT; single field, calibrated with ESI Low Concentration Tuning Mix (Agilent)
RECORDED METRIC: collision cross section (N2) (Å²)
Numbers only; they are read as Å².

COMPOUND	collision cross section (N2) (Å²)
C[C@@H]1NCCc2cc(O)c(O)cc21	139.4
C[C@H](CCC(=O)NCCS(=O)(=O)O)[C@H]1CC[C@H]2[C@@H]3CC[C@@H]4C[C@H](O)CC[C@]4(C)[C@H]3CC[C@]12C	206.6

Give recorded collision cross section (N2). COc1cc(C(O)C(=O)O)ccc1O (stereo unspecified) [3-METHOXY-4-HYDROXYMANDELATE]
143.5

Give recorded collision cross section (N2). COc1cc(CC(=O)O)ccc1O [HOMOVANILLATE]
136

Give recorded collision cross section (N2). O=C(O)c1cc(=O)c2ccccc2[nH]1 [KYNURENATE]
133.9

Give recorded collision cross section (N2). Nc1ncnc2c1ncn2[C@@H]1O[C@H](COP(=O)(O)O)[C@@H](O)[C@H]1O [ADENOSINE-MONOPHOSPHATE]
173.1
